Molecular target: JAK2 (Homo sapiens, UniProt O60674)
Construct: host or cells: baculovirus expression system
Sequence (O60674 whole entry): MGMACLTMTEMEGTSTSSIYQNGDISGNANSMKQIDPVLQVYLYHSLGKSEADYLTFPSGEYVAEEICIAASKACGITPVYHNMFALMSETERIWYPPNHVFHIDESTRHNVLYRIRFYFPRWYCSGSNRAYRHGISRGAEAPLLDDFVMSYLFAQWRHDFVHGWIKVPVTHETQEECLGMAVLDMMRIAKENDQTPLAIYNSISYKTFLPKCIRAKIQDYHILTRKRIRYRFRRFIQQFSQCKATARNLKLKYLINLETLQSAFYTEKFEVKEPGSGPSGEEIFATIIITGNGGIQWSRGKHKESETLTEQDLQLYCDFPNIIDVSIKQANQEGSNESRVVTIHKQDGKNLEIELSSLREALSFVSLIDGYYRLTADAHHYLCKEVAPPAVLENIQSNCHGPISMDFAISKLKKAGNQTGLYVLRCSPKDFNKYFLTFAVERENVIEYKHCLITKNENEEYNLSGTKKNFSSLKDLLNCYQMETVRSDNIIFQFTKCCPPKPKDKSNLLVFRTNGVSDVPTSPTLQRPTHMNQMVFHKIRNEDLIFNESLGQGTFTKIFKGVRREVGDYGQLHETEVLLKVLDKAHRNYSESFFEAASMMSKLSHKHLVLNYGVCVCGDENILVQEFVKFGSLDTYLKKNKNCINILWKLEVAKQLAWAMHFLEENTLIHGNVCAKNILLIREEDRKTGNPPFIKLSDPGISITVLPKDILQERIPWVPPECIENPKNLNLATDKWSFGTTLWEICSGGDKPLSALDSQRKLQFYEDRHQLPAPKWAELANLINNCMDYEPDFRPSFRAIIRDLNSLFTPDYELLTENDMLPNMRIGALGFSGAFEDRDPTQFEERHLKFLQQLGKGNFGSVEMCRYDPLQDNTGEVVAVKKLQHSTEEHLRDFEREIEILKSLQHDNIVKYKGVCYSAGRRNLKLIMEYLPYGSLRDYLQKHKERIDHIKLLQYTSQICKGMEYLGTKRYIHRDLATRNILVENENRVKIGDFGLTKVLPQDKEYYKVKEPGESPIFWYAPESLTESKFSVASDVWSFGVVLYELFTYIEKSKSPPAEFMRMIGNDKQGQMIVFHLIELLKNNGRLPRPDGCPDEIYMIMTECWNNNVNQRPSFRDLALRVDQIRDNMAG
Assay: Recombinant Human JAK2 Kinase Assay (TRF)
Assay type: biochemical
Conditions: JAK2 kinase inhibition, 0.2 μM ATP; read-out: JAK2 Potency
pIC50: −log10 of the molar value.
Provide the recorded pIC50 for the entries that follow.

// pIC50 value for COc1ccc(-c2ccc3cnc(Nc4ccc5c(c4)COCCN5C)nn23)cn1 [Example 637] : > 7.00

// pIC50 value for CC(C)(C)NS(=O)(=O)c1cccc(-c2ccc3cnc(Nc4cccc(C(=O)O)c4)nn23)c1 [Example 895] : > 7.00

// pIC50 value for COc1cc(N2CCC3(CC2)OCCO3)ccc1Nc1ncc2ccc(-c3ccccc3OC)n2n1 [Example 482] : 6.00 to 7.00

// pIC50 value for COc1cc(C2CCN(C(=O)C3CCN3)CC2)ccc1Nc1ncc2ccc(-c3ccccc3N(C)S(C)(=O)=O)n2n1 (racemic) [Example 863] : 5.00 to 6.00

The measurements presented in this section are drawn from patent US8471005B2.
